TARGET_UNDER_TEST: T1, human Trop-2-His protein (human, UniProt P09758 27-274)
T1 construct: extracellular domain; Assay paragraphs say only 'Trop-2-His'; also called hTrop-2; Kactus Cat #TRP-HM121; not shown: His tag
T1 sequence (looked up): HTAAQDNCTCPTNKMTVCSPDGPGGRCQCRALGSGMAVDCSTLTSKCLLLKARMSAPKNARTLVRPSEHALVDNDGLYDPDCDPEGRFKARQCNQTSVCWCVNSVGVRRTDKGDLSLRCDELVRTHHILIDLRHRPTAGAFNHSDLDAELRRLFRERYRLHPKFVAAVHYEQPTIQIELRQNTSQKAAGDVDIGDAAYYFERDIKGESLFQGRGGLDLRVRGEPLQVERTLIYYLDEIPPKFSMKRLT
TEST_SUMMARY: BLI (Gator Plus), purified Ab on HFC probe
pKd: −log10 of the molar value.
Kind request: treat 10 as inclusive, so pKd at 10 or higher is criterion met, anything lower is criterion not met.

Sample answers from the record:
9D7-2 (antibody, V domains shown) VH: QSLEESGGDLVQPGASLTLTCKASGFDLNNYSILWVRQAPGKGLEWIGSIYISGGSTYYANWAKGRFAISKTSSTTVTLQMTSLTAADTATYFCARDDGTASYYLNLWGPGTLVTVSS VL: YDMTQTPASVSEPVGGTVTIKCQASEDIYKLLAWYQQKPGQPPKLLIYAASDLESGVPSRFKGRGSGTDYTLTISDLEAADAATYYCQQAYTIGNIDNSFGGGTEVVVK	criterion not met
72F12 (antibody, V domains shown, Rabbit-derived clone; LEM construct: VH + rabbit IgG CH1 + human IgG1 CH2-CH3) VH: QEQLKESGGGLVQPGGSLKLSCKASGFDFNNYGVSWVRQAPGKGLEWIAYIYPAFHNTYYATWVNGRFTISSHNAQNTLYLQLNSLTAADTATYFCARDAGSVDYNFNLWGPGTLVTVSS VL: DVVMTQTPASVEVAVGGTVTIKCQASKNIDSNLAWYQQKPGQPPKQLIYAASTLASGVSSRFSGSGYGAEFTLTISGVECADAATYYCQQALTIGNVDNPFGGGSEVVVK	criterion not met

Hi team, for 1D10 (antibody, V domains shown, Rabbit-derived clone; LEM construct: VH + rabbit IgG CH1 + human IgG1 CH2-CH3) VH: QEQLKESGGGLVQPGGSLTLSCKASGFDFNYYGVSWVRQAPGKGLEWIGYIYPAYHNTYYATWVNGRFTISSHNAQNTLYLQLNTLTAADTATYFCARDAGSTDYNLNLWGPGTLVTVSS VL: DVVMTQTPASVEVAVGGTVTIKCQASEDIESYLAWYQQKPGQPPRLLIYEASKLASGVSSRFSGGGYGTDFTLTISGVECADAATYYCHQALTIGNVDNPFGGGGEVVVK , is the recorded pKd at or above 10?
criterion not met

Hi team, for 5D4 (antibody, V domains shown, Rabbit-derived clone; LEM construct: VH + rabbit IgG CH1 + human IgG1 CH2-CH3) VH: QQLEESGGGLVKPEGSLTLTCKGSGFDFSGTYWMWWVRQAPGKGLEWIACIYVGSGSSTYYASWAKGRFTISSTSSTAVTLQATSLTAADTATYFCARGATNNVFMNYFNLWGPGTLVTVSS VL: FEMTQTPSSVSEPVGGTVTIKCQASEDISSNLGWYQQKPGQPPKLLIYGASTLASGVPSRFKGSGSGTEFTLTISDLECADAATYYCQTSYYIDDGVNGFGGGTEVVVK , is the recorded pKd at or above 10?
criterion met
